Assignment: determine reported AUC at 24 h for the given compounds.
# procedureText: AUC in Sprague-Dawley CD-1 rat plasma at 3 mg/kg, po administered as cassette dose via gavage measured up to 24 hrs by LC/MS analysis
# Assay type: ADME, organism-based
# Set-up: time < 24 hr, dose 3 mg/kg, route oral
Answers are plain numbers, in ng·h/mL.

molSmiles | unitString | AUC at 24 h
O=C(c1ccccn1)[C@]12Cc3cnn(-c4ccc(F)cc4)c3C=C1CCN(S(=O)(=O)c1ccc(C(F)(F)F)c(F)c1)C2 | ng·h/mL | 726
Cc1c(S(=O)(=O)N2CCC3=Cc4c(cnn4-c4ccc(F)cc4)C[C@]3(C(=O)c3cc(C(F)(F)F)ccn3)C2)cnn1C | ng·h/mL | 283
Cc1ccnc(C(=O)[C@]23Cc4cnn(-c5ccc(F)cc5)c4C=C2CCN(S(=O)(=O)c2ccc(F)c(F)c2)C3)c1 | ng·h/mL | 421
Cn1ncc(S(=O)(=O)N2CCC3=Cc4c(cnn4-c4ccc(F)cc4)C[C@]3(C(=O)c3cc(C(F)(F)F)ccn3)C2)n1 | ng·h/mL | 860
N#Cc1cccc(S(=O)(=O)N2CCC3=Cc4c(cnn4-c4ccc(F)cc4)C[C@]3(C(=O)c3cc(C(F)(F)F)ccn3)C2)c1 | ng·h/mL | 49
Cn1cc(S(=O)(=O)N2CCC3=Cc4c(cnn4-c4ccc(F)cc4)C[C@]3(C(=O)c3cc(C(F)(F)F)ccn3)C2)nn1 | ng·h/mL | 450
CCn1cc(S(=O)(=O)N2CCC3=Cc4c(cnn4-c4ccc(F)cc4)C[C@]3(C(=O)c3cc(C(F)(F)F)ccn3)C2)cn1 | ng·h/mL | 701
O=C(c1ccccn1)[C@]12Cc3cnn(-c4ccc(F)cc4)c3C=C1CCN(S(=O)(=O)c1ccc(F)c(F)c1)C2 | ng·h/mL | 974

Each compound below has a recorded value; state its AUC at 24 h.
1. Cc1ccnc(C(=O)[C@]23Cc4cnn(-c5ccc(F)cc5)c4C=C2CCN(S(=O)(=O)c2cccc(C#N)c2)C3)c1
2. Cc1ccnc(C(=O)[C@]23Cc4cnn(-c5ccc(F)cc5)c4C=C2CCN(S(=O)(=O)c2ccc(C(F)(F)F)c(F)c2)C3)c1
3. Cn1cc(S(=O)(=O)N2CCC3=Cc4c(cnn4-c4ccc(F)cc4)C[C@]3(C(=O)c3cc(C(F)(F)F)ccn3)C2)cn1
4. N#Cc1cccc(S(=O)(=O)N2CCC3=Cc4c(cnn4-c4ccc(F)cc4)C[C@]3(C(=O)c3ccccn3)C2)c1
5. Cn1ccc(S(=O)(=O)N2CCC3=Cc4c(cnn4-c4ccc(F)cc4)C[C@]3(C(=O)c3cc(C(F)(F)F)ccn3)C2)n1
6. Cc1cccc(S(=O)(=O)N2CCC3=Cc4c(cnn4-c4ccc(F)cc4)C[C@]3(C(=O)c3ccccn3)C2)c1

Completion:
[217, 173, 1220, 239, 863, 83]

Prompt: Item Cn1cc(S(=O)(=O)N2CCC3=Cc4c(cnn4-c4ccc(F)cc4)C[C@]3(C(=O)c3ccccn3)C2)cn1 has what recorded AUC at 24 h?
Completion: 780

----------
# targetOrTestSystem: Glucocorticoid receptor (Homo sapiens, UniProt P04150)
# Sequence (P04150 whole entry): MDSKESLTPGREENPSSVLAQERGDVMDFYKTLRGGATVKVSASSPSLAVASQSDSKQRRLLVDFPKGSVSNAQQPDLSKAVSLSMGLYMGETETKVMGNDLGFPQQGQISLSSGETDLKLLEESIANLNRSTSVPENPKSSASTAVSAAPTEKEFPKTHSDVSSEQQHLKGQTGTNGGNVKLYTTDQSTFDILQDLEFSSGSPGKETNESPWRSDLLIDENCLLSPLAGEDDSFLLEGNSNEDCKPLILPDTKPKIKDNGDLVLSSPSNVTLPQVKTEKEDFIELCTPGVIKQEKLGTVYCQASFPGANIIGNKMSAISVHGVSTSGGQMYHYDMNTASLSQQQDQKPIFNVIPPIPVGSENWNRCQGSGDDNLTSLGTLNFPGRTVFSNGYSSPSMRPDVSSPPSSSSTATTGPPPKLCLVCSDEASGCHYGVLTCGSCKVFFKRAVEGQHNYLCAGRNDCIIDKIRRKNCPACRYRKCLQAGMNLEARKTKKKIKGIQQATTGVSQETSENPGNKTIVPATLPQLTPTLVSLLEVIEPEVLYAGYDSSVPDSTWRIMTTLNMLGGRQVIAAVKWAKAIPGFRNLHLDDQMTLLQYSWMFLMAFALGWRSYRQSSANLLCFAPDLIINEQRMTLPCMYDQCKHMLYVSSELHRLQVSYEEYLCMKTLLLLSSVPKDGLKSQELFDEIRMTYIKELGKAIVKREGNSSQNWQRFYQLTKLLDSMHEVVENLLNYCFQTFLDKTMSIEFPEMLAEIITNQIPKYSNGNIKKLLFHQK
# procedureText: Antagonist activity at glucocorticoid receptor in human primary hepatocytes assessed as inhibition of dexamethasone-induced tyrosine amino transferase activity preincubated for 30 mins followed by dexamethasone addition measured after 20 hrs
# Assay type: cell-based
measuredProperty: pKi
Answers are plain numbers, as −log10 of the molar value.

Prompt: Item Cn1cc(S(=O)(=O)N2CCC3=Cc4c(cnn4-c4ccc(F)cc4)C[C@]3(C(=O)c3cc(C(F)(F)F)ccn3)C2)cn1 has what recorded pKi?
Completion: 7.09

----------
# procedureText: Oral bioavailability in monkey plasma at 20 mg/kg measured up to 24 hrs by LC/MS analysis
# Assay type: ADME, organism-based, Macaca mulatta
# conditions: rhesus monkey
measuredProperty: bioavailability (%)
Answers are plain numbers, in %.

molSmiles | bioavailability, %
Cn1nccc1S(=O)(=O)N1CCC2=Cc3c(cnn3-c3ccc(F)cc3)C[C@]2(C(=O)c2cc(C(F)(F)F)ccn2)C1 | 1
CCn1nccc1S(=O)(=O)N1CCC2=Cc3c(cnn3-c3ccc(F)cc3)C[C@]2(C(=O)c2cc(C(F)(F)F)ccn2)C1 | 1.5

Prompt: Item Cn1cc(S(=O)(=O)N2CCC3=Cc4c(cnn4-c4ccc(F)cc4)C[C@]3(C(=O)c3cc(C(F)(F)F)ccn3)C2)cn1 has what recorded bioavailability?
Completion: 88

----------
# procedureText: AUC in Sprague-Dawley CD-1 rat plasma at 5 mg/kg, po administered through gavage measured up to 24 hrs by LC/MS analysis
# Format: ADME, organism-based
# Design: dose 5 mg/kg, time < 24 hr, route oral
Classify as follows. Reported AUC at 24 h greater than or equal to 2000 ng·h/mL: yes (1). Reported AUC at 24 h below: no (0).

molSmiles | labelClass
Cn1cc(S(=O)(=O)N2CCC3=Cc4c(cnn4-c4ccc(F)cc4)C[C@]3(C(=O)c3cc(C(F)(F)F)ccn3)C2)cn1 | no (0)
Cn1nccc1S(=O)(=O)N1CCC2=Cc3c(cnn3-c3ccc(F)cc3)C[C@]2(C(=O)c2cc(C(F)(F)F)ccn2)C1 | no (0)
CCn1nccc1S(=O)(=O)N1CCC2=Cc3c(cnn3-c3ccc(F)cc3)C[C@]2(C(=O)c2cc(C(F)(F)F)ccn2)C1 | no (0)
Cn1ccc(S(=O)(=O)N2CCC3=Cc4c(cnn4-c4ccc(F)cc4)C[C@]3(C(=O)c3cc(C(F)(F)F)ccn3)C2)n1 | no (0)

Now examine the next entry.
Prompt: Determine whether this compound has AUC at 24 h no lower than 2000 ng·h/mL: Cn1ncc(S(=O)(=O)N2CC[C@H]3Cc4c(cnn4-c4ccc(F)cc4)C[C@]3(C(=O)c3cc(C(F)(F)F)ccn3)C2)n1
Completion: yes (1)

----------
# targetOrTestSystem: UniProt P06536
# Sequence (P06536 whole entry): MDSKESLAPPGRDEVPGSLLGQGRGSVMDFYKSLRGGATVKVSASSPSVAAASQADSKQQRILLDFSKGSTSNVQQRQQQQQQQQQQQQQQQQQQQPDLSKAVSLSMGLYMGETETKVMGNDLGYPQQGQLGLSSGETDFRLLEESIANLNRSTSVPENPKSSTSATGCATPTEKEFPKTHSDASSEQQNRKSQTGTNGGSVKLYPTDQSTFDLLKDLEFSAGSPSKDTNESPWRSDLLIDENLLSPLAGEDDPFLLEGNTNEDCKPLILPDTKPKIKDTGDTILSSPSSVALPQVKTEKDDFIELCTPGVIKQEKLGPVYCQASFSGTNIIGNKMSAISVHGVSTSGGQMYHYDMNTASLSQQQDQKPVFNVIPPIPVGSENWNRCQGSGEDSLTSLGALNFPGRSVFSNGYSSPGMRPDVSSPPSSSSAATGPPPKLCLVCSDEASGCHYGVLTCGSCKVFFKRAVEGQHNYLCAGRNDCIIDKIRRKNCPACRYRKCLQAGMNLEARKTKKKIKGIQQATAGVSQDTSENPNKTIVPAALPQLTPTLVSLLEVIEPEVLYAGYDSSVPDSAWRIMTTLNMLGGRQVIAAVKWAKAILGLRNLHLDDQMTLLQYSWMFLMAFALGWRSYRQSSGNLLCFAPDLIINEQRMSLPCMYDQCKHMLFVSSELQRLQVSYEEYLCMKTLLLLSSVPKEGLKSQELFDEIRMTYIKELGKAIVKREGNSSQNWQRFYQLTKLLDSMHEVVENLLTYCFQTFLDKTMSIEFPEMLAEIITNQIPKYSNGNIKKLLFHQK
# procedureText: Antagonist activity at rat glucocorticoid receptor in primary hepatocytes assessed as dexamethasone-induced tyrosine amino transferase activity preincubated for 30 mins followed by dexamethasone addition measured after 20 hrs
measuredProperty: Ki
Put your answer as a value accompanied by its unit after it.

Prompt: Observed Ki on UniProt P06536 for Cn1cc(S(=O)(=O)N2CCC3=Cc4c(cnn4-c4ccc(F)cc4)C[C@]3(C(=O)c3cc(C(F)(F)F)ccn3)C2)cn1 [RELACORILANT] , please.
Completion: 12 nM

----------
# targetOrTestSystem: Glucocorticoid receptor (Canis lupus familiaris)
# Sequence (A0A8C0QLS2 whole entry): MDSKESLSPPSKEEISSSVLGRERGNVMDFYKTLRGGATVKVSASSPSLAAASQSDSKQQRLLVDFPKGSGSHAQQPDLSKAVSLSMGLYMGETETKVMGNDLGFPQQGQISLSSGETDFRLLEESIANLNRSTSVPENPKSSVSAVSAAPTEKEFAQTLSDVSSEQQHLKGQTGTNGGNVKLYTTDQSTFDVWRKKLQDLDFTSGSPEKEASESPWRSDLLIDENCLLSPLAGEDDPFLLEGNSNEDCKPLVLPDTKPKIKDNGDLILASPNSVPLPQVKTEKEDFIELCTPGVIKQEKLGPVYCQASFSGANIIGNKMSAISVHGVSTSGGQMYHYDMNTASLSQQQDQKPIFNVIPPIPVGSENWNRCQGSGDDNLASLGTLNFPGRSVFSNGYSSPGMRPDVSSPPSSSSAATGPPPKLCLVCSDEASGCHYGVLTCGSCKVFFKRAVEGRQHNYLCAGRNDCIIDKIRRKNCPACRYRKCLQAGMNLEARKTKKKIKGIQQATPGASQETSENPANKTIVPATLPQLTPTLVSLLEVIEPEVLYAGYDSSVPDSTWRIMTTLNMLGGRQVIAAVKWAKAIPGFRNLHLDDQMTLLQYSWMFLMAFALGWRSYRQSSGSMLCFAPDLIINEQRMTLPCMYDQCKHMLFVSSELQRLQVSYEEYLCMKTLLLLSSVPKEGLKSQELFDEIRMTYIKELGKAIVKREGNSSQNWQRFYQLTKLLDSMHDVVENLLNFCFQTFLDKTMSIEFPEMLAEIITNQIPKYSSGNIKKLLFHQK
# procedureText: Antagonist activity at dog glucocorticoid receptor in primary hepatocytes assessed as dexamethasone-induced tyrosine amino transferase activity preincubated for 30 mins followed by dexamethasone addition measured after 20 hrs
measuredProperty: Ki

Prompt: Observed Ki on Glucocorticoid receptor (Canis lupus familiaris) for Cn1cc(S(=O)(=O)N2CCC3=Cc4c(cnn4-c4ccc(F)cc4)C[C@]3(C(=O)c3cc(C(F)(F)F)ccn3)C2)cn1 , please.
Completion: > 10 µM

----------
# targetOrTestSystem: Cytochrome P450 2D6 (Homo sapiens)
# Sequence (P10635 whole entry): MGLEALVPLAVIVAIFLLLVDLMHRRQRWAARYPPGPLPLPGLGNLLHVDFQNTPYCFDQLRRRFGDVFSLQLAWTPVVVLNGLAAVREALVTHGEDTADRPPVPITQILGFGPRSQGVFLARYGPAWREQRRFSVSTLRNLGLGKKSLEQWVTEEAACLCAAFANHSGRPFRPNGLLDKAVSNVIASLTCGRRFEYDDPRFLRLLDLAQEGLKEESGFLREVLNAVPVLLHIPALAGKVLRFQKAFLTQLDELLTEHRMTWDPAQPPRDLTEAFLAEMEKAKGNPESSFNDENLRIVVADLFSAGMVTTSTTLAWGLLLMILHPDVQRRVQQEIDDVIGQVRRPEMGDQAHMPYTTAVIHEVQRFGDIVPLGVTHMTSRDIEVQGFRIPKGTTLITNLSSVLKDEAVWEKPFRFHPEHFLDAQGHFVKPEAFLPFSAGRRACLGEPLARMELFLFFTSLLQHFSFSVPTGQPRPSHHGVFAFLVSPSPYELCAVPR
measuredProperty: pIC50
Give bare numbers, as −log10 of the molar value.

Prompt: Item Cn1cc(S(=O)(=O)N2CCC3=Cc4c(cnn4-c4ccc(F)cc4)C[C@]3(C(=O)c3cc(C(F)(F)F)ccn3)C2)cn1 [RELACORILANT] has what recorded pIC50?
Completion: 5.05
